Origin of values: PubChem BioAssay AID1963845

# viability, T/C per record follows
System: 429239-143-T-J1-PDC complex spheroid viability
Assay: Anticancer human tumor 429239-143-T-J1-PDC patient-derived small cell lung carcinoma cell line growth inhibition [POLQ]
Settings: second compound 3.16 µM; first compound 0.000316 µM; stronger effect = lower value
Reported metric: viability, T/C (%)

CC[C@@]1(O)C(=O)OCc2c1cc1n(c2=O)Cc2cc3c(CN(C)C)c(O)ccc3nc2-1 + COC1C(OC(N)=O)C(O)C(Oc2ccc3c(O)c(NC(=O)c4ccc(O)c(CC=C(C)C)c4)c(=O)oc3c2C)OC1(C)C
108
Cn1ncnc1[C@H]1c2n[nH]c(=O)c3cc(F)cc(c23)N[C@@H]1c1ccc(F)cc1 + Cc1cccc(N(C)C(=O)C2C(O)CCN2c2nc(C)cc(C(F)(F)F)c2C#N)c1
95.8
CC[C@@]1(O)C(=O)OCc2c1cc1n(c2=O)Cc2cc3c(CN(C)C)c(O)ccc3nc2-1 + Nc1ccc(C#CCN(C(=O)Cc2ncc(C(F)(F)F)cc2C(F)(F)F)c2ccc(F)cc2)nn1
101

----------
Test system: 429239-143-T-J1-PDC complex spheroid viability
Assay: Anticancer human tumor 429239-143-T-J1-PDC cell line growth inhibition [POLQ];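 note: luminescence signal used as surrogate measure of viable cells; spheroids exposed to compounds for seven days before readout; 100% = DMSO vehicle control viability as luminescence relative to vehicle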
Conditions: second compound 3.16 µM; first compound 0.00316 µM; stronger effect = lower value
# viability, T/C per record follows
Reported metric: viability, T/C (%)

CCc1c2c(nc3ccc(O)cc13)-c1cc3c(c(=O)n1C2)COC(=O)[C@]3(O)CC + Nc1ccc(C#CCN(C(=O)Cc2ncc(C(F)(F)F)cc2C(F)(F)F)c2ccc(F)cc2)nn1
8.61
CC[C@@]1(O)C(=O)OCc2c1cc1n(c2=O)Cc2cc3c(CN(C)C)c(O)ccc3nc2-1 + Cc1cccc(N(C)C(=O)C2C(O)CCN2c2nc(C)cc(C(F)(F)F)c2C#N)c1
94.2
C=CCn1c(=O)c2cnc(Nc3ccc(N4CCN(C)CC4)cc3)nc2n1-c1cccc(C(C)(C)O)n1 + Cc1cccc(N(C)C(=O)C2C(O)CCN2c2nc(C)cc(C(F)(F)F)c2C#N)c1
108
Cn1ncnc1[C@H]1c2n[nH]c(=O)c3cc(F)cc(c23)N[C@@H]1c1ccc(F)cc1 + Cc1cccc(N(C)C(=O)C2C(O)CCN2c2nc(C)cc(C(F)(F)F)c2C#N)c1
84.4
CC[C@@]1(O)C(=O)OCc2c1cc1n(c2=O)Cc2cc3c(CN(C)C)c(O)ccc3nc2-1 + Nc1ccc(C#CCN(C(=O)Cc2ncc(C(F)(F)F)cc2C(F)(F)F)c2ccc(F)cc2)nn1
99.8

----------
# viability, T/C per record follows
System: 429239-143-T-J1-PDC complex spheroid viability
Experiment: Anticancer human tumor 429239-143-T-J1-PDC cell line growth inhibition [POLQ];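 note: luminescence signal used as surrogate measure of viable cells; spheroids exposed to compounds for seven days before readout; 100% = DMSO vehicle control viability as luminescence relative to vehicle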
Settings: second compound 10 µM; first compound 1 µM; stronger effect = lower value
Reported metric: viability, T/C (%)

COc1cccc2c1C(=O)c1c(O)c3c(c(O)c1C2=O)CC(O)(C(=O)CO)CC3OC1CC(N)C(O)C(C)O1 (stereo not given) + Cc1cccc(N(C)C(=O)C2C(O)CCN2c2nc(C)cc(C(F)(F)F)c2C#N)c1
0.17
CCc1cc2c(N3CCc4c(cc(Cn5ccnc5)cc4-c4cn(C)nc4C(F)(F)F)C3=O)ccnc2c(OC)n1 + Nc1ccc(C#CCN(C(=O)Cc2ncc(C(F)(F)F)cc2C(F)(F)F)c2ccc(F)cc2)nn1
79.1
CC1COCCN1c1cc(C2(O)CC3CCC(C2)O3)c2cnn(-c3ccn[nH]3)c2n1 (stereo not given) + COC1C(OC(N)=O)C(O)C(Oc2ccc3c(O)c(NC(=O)c4ccc(O)c(CC=C(C)C)c4)c(=O)oc3c2C)OC1(C)C
8.41
C=CCn1c(=O)c2cnc(Nc3ccc(N4CCN(C)CC4)cc3)nc2n1-c1cccc(C(C)(C)O)n1 + Nc1ccc(C#CCN(C(=O)Cc2ncc(C(F)(F)F)cc2C(F)(F)F)c2ccc(F)cc2)nn1
13.3
O=c1[nH]cc(F)c(=O)[nH]1 + Nc1ccc(C#CCN(C(=O)Cc2ncc(C(F)(F)F)cc2C(F)(F)F)c2ccc(F)cc2)nn1
83.1
